The measured values listed here are drawn from patent US20240425569A1.

Below, each entry is listed with its recorded pKd.
biological target: T1, Philippines/1956 (H87)* (serotype III EDIII) (Dengue virus 3)
T1 construct: isolated EDIII protein
T1 sequence (P27915 576-671): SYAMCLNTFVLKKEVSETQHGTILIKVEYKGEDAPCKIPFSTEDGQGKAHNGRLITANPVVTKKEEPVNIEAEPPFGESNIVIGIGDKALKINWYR
Please note pKd is a logarithmic value: minus log10 of concentration in mol/L. Answer with that number alone.

Please review the following examples before continuing.
binder: antibody D88 (antibody, V domains shown, also called mAb D88) VH: QVQLVQSGAEVKKPGASVKVSCKAGFNIKDVYMSWVRQAPEQGLEWMGRIDPENGDTKYDPKLQGRVTMTADTSTNTAYMELRSLRSDDTAVYYCARGWEGFAYWGQGTLVTVSS VL: DIVMTQSPASLAVSLGERATISCRASENVDKYGNSFMHWYQQKPGQPPKLLIYRASELQWGVPDRFSGSGSGTDFTLTISSLQAEDVAVYYCQRSNEVPWTFGQGTKLEIK
value kind: pKd
endpoint result: 8.92
//
binder: antibody C88 (antibody, V domains shown) VH: QVQLVQSGAEVKKPGASVKVSCKASGFNIKDVYMSWVRQAPEQGLEWMGRIDPENGDTKYDPKLQGRVTMTADTSTNTAYMELRSLRSDDTAVYYCARGWEGFAYWGQGTLVTVSS VL: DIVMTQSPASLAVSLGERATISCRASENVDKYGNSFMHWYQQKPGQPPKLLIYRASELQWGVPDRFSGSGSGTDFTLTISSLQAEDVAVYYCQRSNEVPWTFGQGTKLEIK
value kind: pKd
endpoint result: 8.82
//
binder: antibody A11 (antibody, V domains shown, also called mAb A11; 4E5A) VH: VKLLEQSGAELVKPGASVRLSCTASGFNIKDTYMSWVKQRPEQGLEWIGRIDPENGDTKYDPKFQGKATITADTSSNTAYLHLSSLTSGDTAVYYCSRGWEGFAYWGQGTLVTVSA VL: ELVMTQTPASLAVSLGQRATISCRASENVDKYGNSFMHWYQQKAGQPPKLLIYRASELQWGIPARFSGSGSRTDFTLTINPVEADDVATYFCQRSNEVPWTFGGGTKLEIK
value kind: pKd
endpoint result: 7.85

// next item, pKd requested
Return the recorded pKd value; entry: mouse mAb 4E11 (antibody, V domains shown, also called antibody 4E11) VH: VKLLEQSGAELVKPGASVRLSCTASGFNIKDTYMSWVKQRPEQGLEWIGRIDPANGDTKYDPKFQGKATITADTSSNTAYLHLSSLTSGDTAVYYCSRGWEGFAYWGQGTLVTVSA VL: ELVMTQTPASLAVSLGQRATISCRASENVDRYGNSFMHWYQQKAGQPPKLLIYRASNLESGIPARFSGSGSRTDFTLTINPVEADDVATYFCQRSNEVPWTFGGGTKLEIK 7.66
